tested on: human Kallikrein-related peptidase 7 (hKLK7) (human), P49862
Sequence (P49862 30-253): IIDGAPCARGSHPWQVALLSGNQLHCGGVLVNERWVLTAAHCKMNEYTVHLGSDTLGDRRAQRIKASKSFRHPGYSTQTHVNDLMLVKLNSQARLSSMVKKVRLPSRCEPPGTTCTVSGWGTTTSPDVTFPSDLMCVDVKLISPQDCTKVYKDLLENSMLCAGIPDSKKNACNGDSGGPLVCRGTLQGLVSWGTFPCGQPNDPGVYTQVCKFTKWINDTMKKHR
protocol text: enzyme inhibition; pyridine linker
stated conditions: modification not given
property label: pKi
Answer as the number alone; pKi is minus log10 of concentration in mol/L.

Would you mind telling me what pKi value was observed for PCLYLAC [109] ?
7.72

Would you mind telling me what pKi value was observed for PCLYLACS [087] ?
7.76

Would you mind telling me what pKi value was observed for QCLYLSCS [081] ?
7.92

Further cases:
Would you mind telling me what pKi value was observed for PCLYLTCS [088] ?
7.28
